Assay: NCI Yeast Anticancer Drug Screen. Data for the rad50 strain (AID 155);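 also: 0% = growth of vehicle-only cultures of the same strain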
Conditions: S. cerevisiae rad50 strain growth inhibition; at 50.0 µM (retest, dose inferred, filed as 5.0); active compounds read high
About 79,000 compounds went through this panel and 15% of them were active in at least one assay; those are over-represented in the sample as a whole.
Recorded growth inhibition, one value per entry.
Give just the number in %; leave the unit off.

CC(C)c1ccc(S(=O)(=O)c2ccc([N+](=O)[O-])cc2[N+](=O)[O-])cc1 = 91
CCC(c1cccc(O)c1)C(CC)c1cccc(O)c1 (stereo not given) = 55
Cc1ccc2c(c1)C1(C)C=C(CN3CCN(C)CC3)C(=O)CC1O2 (stereo not given) = 97
COC(CCC[N+](C)(C)C)CC[N+](C)(C)C (stereo not given) = 81
O=C(Nc1ccccc1F)C(Br)C(Br)c1ccccc1 (stereo not given) = 97

Lab book: growth inhibition of CC(C)CCCCCCCCCCCCC(=O)NCC(=O)NC1C(C)OC(Nc2ncnc3nc[nH]c23)C(O)C1O (stereo not given) noted as 22

Lab book: growth inhibition of O=C(CNC(=O)c1ccccc1)Oc1c(Cl)c(Cl)c(Cl)c(Cl)c1Cl noted as 61

Lab book: growth inhibition of COc1ccc2c(c1)C(=O)C(Br)CC2 (stereo not given) noted as 98

Lab book: growth inhibition of ClCc1nnc2n1-c1ccc(Cl)cc1SC2 noted as 68

Lab book: growth inhibition of O=C(O)C(c1ccc(Cl)cc1)c1ccc(Cl)cc1 noted as 98

Lab book: growth inhibition of CCCCN(CCCC)CCCCNc1ccc(C)c2sc3ccccc3c(=O)c12 noted as 99

Lab book: growth inhibition of COc1cccc(N2C(=O)C3CC(CC(C)(C)C)c4c([nH]c5ccccc45)C3C2=O)c1 (stereo not given) noted as 33

###

Test: NCI Yeast Anticancer Drug Screen. Data for the sgs1 mgt1 strain (AID 161);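 also: 0% = growth of cultures given vehicle only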
Settings: S. cerevisiae sgs1 mgt1 strain, at 50.0 µM
Compounds without any hit were thinned out: in the full panel of roughly 79,000, 15% have a hit. Activity calls are given as the source filed them. Rule as the data show it: active = growth inhibition above about 70%; inactive = the rest.
A correct response names exactly one class from true for active, false for inactive

COc1ccc(C2CC(CO)ON2c2ccccc2)cc1 (configuration not stated) = true
CN(C)CCSc1cc(-c2ccccc2)c2ccccc2n1 = false
Cc1ccnc(NC(c2ccccc2)c2ccc3cccnc3c2O)c1 (configuration not stated) = true

Task: For this molecule, state the assay outcome: O=C(CC1(O)C(=O)Nc2c(Cl)cc(Cl)cc21)c1ccc(Cl)cc1 (configuration not stated)
Result: true

Task: For this molecule, state the assay outcome: C[C@H](CCC(=O)O)[C@H]1CC[C@H]2[C@@H]3[C@@H](O)C[C@@H]4C[C@H](O)CC[C@]4(C)[C@H]3CC[C@]12C
Result: true

Task: For this molecule, state the assay outcome: Cc1cc(N(CCC#N)CCC#N)ccc1/C(N=Nc1cccc([N+](=O)[O-])c1)=N/NC(=O)c1cc(Cl)ccc1O
Result: false

Task: For this molecule, state the assay outcome: CCOC(=O)C(NC(=O)C(CO)n1c(-c2ccccc2)c(-c2ccccc2)oc1=O)C(=O)OCC (configuration not stated)
Result: false

Task: For this molecule, state the assay outcome: C1C2OC2C2C1C1CC2C2OC12 (configuration not stated)
Result: false

Task: For this molecule, state the assay outcome: N#CCC1CC(=O)c2[nH]c3ccccc3c2C1 (configuration not stated)
Result: false

Task: For this molecule, state the assay outcome: O=C(Cc1ccccc1)c1ccc(O)c(F)c1
Result: true

Task: For this molecule, state the assay outcome: C1=NCCN=Cc2ccccc2NCCNc2ccccc21
Result: true

Task: For this molecule, state the assay outcome: CC(NNC(=S)N1CC2CCC(CC2)C1)c1cc2ccccc2cn1 (configuration not stated)
Result: true
